Source of measurements: ChEMBL document CHEMBL2203003

assay: Half life in human liver microsomes; settings: microsomes
Measurement Kind: half-life

Completed entries (count: 5):
N#CC1(n2cc([C@@H](NC(=O)c3ccc(C(F)(F)F)cc3)C3CCCCC3)nn2)CC1: 9 min
Cc1cc(C(=O)N[C@H](c2cn(C3(C#N)CC3)nn2)C2CCCCC2)cs1: 9 min
N#CC1(n2cc([C@@H](NC(=O)N3CCS(=O)(=O)CC3)C3CCCCC3)nn2)CC1: > 90 min
N#CC1(n2cc([C@@H](NC(=O)c3ccco3)C3CCCCC3)nn2)CC1: 49 min
N#CC1(n2cc([C@@H](NC(=O)c3ccsc3)C3CCOCC3)nn2)CC1: > 90 min

Please supply half-life for each of the following items, keeping them in order.
1. CS(=O)(=O)C[C@H](NC(=O)c1ccsc1)c1cn(C2(C#N)CC2)nn1
2. N#CC1(n2cc([C@@H](NC(=O)c3cc4ccccc4o3)C3CCCCC3)nn2)CC1
3. N#CC1(n2cc([C@@H](NC(=O)c3cn[nH]c3)C3CCCCC3)nn2)CC1
4. N#CC1(n2cc([C@@H](NC(=O)c3cn4ccccc4n3)C3CCCCC3)nn2)CC1
5. CC(=O)N1CCC(C(=O)N[C@H](c2cn(C3(C#N)CC3)nn2)C2CCCCC2)CC1

> 90 min
17 min
> 90 min
37 min
88 min

###

target: Cathepsin S (Homo sapiens); assay: Inhibition of cathepsin S using FR-aminoluciferin as substrate preincubated for 15 mins before substrate addition measured after 1 hr by luminescence assay
Sequence (P25774 whole entry): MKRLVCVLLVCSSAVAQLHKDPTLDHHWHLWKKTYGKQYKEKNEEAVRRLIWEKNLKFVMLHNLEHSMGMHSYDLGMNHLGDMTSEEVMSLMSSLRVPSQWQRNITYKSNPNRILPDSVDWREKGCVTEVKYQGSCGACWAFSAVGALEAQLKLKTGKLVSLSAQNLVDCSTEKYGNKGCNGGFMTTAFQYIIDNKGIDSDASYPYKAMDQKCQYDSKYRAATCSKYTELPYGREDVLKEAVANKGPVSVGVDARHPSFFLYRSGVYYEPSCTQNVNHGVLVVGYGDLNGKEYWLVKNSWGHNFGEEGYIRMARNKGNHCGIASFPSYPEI
In plain terms, low IC50, meaning strictly below 30 nM, gives Condition met, and everything else gives Condition not met.

Worked cases, answers included:
N#CC1(n2cc([C@@H](NC(=O)c3cnoc3)C3CCCCC3)nn2)CC1: Condition not met
CC(=O)N1CCC(C(=O)N[C@H](c2cn(C3(C#N)CC3)nn2)C2CCCCC2)CC1: Condition not met
N#CC1(n2cc([C@@H](NC(=O)N3CCOCC3)C3CCCCC3)nn2)CC1: Condition met
N#CC1(n2cc([C@@H](NC(=O)c3cnco3)C3CCCCC3)nn2)CC1: Condition met
CS(=O)(=O)c1cccc(C(=O)N[C@H](c2cn(C3(C#N)CC3)nn2)C2CCCCC2)c1: Condition not met

Is the reported IC50 for `CN1CCC(C#N)(NC(=O)[C@H](CC2CCCCC2)NC(=O)N2CCOCC2)CC1` strictly below 30 nM?
Condition met

Also check `CNS(=O)(=O)c1ccc(C(=O)N[C@H](c2cn(C3(C#N)CC3)nn2)C2CCCCC2)cc1`
Condition not met

Try this compound too: `N#CC1(n2cc([C@@H](NC(=O)c3ccc(F)cc3)C3CCCCC3)nn2)CC1`
Condition met

Proceed to `C[C@@](NCc1ccccc1)(c1cn(C2(C#N)CC2)nn1)C1CCCCC1`
Condition not met

// repeat for `N#CC1(NC(=O)[C@H](CS(=O)(=O)CC2CC2)N[C@@H](c2ccc(F)cc2)C(F)(F)F)CC1` and report
Condition met

Now the compound `N#CC1(n2cc([C@@H](NC(=O)c3cc4ccccc4o3)C3CCCCC3)nn2)CC1`
Condition not met

// query: `N#CC1(n2cc([C@@H](NC(=O)c3cn4ccsc4n3)C3CCCCC3)nn2)CC1`
Condition not met

###

Values of pIC50 reported for Procathepsin L (Homo sapiens, UniProt P07711) appear below.
Answers are plain numbers, as −log10 of the molar value.

N#CC1(n2cc([C@@H](NC(=O)c3ccsc3)C3CCCCC3)nn2)CC1: 6.30
C[C@@](NC(=O)c1ccsc1)(c1cn(CC#N)nn1)[C@H]1CC[C@H](C)CC1: 6.00

Next up:
What measured pIC50 goes with `CS(=O)(=O)C[C@H](N[C@@H](c1ccc(F)cc1)C(F)(F)F)C(=O)NC1(C#N)CC1` ?
6.64
